Target: T1, human IL-4Rα on TF-1 cells (human, UniProt P24394 26-825)
T1 sequence (looked up): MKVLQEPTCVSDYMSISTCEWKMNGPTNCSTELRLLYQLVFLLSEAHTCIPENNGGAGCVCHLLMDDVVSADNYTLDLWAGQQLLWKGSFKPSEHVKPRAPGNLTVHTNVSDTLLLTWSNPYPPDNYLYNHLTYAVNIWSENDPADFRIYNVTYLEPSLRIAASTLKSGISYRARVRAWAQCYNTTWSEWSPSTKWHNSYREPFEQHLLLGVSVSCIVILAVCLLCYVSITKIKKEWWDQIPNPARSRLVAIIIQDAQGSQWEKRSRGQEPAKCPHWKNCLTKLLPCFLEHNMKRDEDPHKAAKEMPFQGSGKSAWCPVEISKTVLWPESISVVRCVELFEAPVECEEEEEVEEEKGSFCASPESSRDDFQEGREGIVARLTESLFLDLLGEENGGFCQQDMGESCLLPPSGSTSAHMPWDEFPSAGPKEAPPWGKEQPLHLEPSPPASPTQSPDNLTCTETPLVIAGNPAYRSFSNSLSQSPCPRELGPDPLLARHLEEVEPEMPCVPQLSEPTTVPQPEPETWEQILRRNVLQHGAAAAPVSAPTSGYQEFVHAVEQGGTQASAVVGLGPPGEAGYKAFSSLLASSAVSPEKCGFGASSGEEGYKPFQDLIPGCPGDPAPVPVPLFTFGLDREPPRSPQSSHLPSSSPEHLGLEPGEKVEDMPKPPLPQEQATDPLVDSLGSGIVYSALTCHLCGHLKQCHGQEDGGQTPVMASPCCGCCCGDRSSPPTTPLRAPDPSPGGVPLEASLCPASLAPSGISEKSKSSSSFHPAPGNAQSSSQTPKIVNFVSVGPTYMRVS
Test: cell-based or functional assay
assay readout: IC50 (pM), IL-4 induced TF-1 cell proliferation
Provide the reading as a plain figure in pM.

Solved entries:
Given Antibody 11 IgG (antibody, V domains shown) VH: QVQLVQSGAEVKKPGASVKVSCKASGYAFTSYYMHWARQAPGQGLEWMGIINPSGGSTSYAQKFQGRVTMTRDTSTSTVYMELSSLRSEDTAVYYCARGKWWFYDWGKGTLVTVSS VL: QSVLTQPPSVSAAPGQKVTISCSGGSSNIGNSYVSWYQQLPGTAPKLLIYDNNKRPSGIPDRFSGSKSGTSATLAITGLQTGDEADYYCGTWDTSPSMIPLFGTGTKLTVL , state its recorded IC50 (pM), IL-4 induced TF-1 cell proliferation.
18.8

Given Antibody 25 IgG (antibody, V domains shown) VH: QVQLVQSGAEVKKPGASVKVSCKASGYAFTSYYMHWARQAPGQGLEWMGIINPRGGSASYAQKFQGRVSMTRDTSTSTVYMELSSLRSEDTAVYYCARGKYWMYDWGKGTLVTVSS VL: QSVLTQPPSVSAAPGQKVTISCSGGSSNIGNSYVSWYQQLPGTAPKLLIYDNNKRPSGIPDRFSGSKSGTTATLAITGLQTGDEADYYCGTWVTSTVWEWPFGTGTKLTVL , state its recorded IC50 (pM), IL-4 induced TF-1 cell proliferation.
9.8

# evaluate next
Given Antibody 4 IgG (antibody, V domains shown) VH: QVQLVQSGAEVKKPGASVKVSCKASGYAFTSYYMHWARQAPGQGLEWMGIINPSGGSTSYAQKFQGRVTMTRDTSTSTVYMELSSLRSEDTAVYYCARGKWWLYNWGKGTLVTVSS VL: QSVLTQPPSVSAAPGQKVTISCSGGSSNIGNSYVSWYQQLPGTAPKLLIYDNNKRPSGIPDRFSGSKSGTSATLAITGLQTGDEADYYCGTWDTSSPPQPIFGTGTKLTVL , state its recorded IC50 (pM), IL-4 induced TF-1 cell proliferation.
20.9
